Test system: M14
Protocol Summary: Growth inhibition of human M14 cells assessed as cell growth at 10^-5 M incubated for 48 hrs by sulforhodamine B assay relative to control
Assay type: functional
Setup Conditions: M14, 48 h, read-out: Activity
Parameter threshold = 90%. Response is TRUE when growth at 10 µM meets or exceeds it, else FALSE.

# count of solved cases: 4
>  <Compound>
c1ccc2c(c1)[nH]c1c(-c3ccc(-c4nccc5c4[nH]c4ccccc45)cc3)nccc12

>  <Study System>
M14

>  <Assigned Category>
TRUE

$$$$
>  <Compound>
Cc1ccc(S(=O)(=O)N2CCc3c([nH]c4ccccc34)C2c2ccc(-c3nc4ccccc4[nH]3)cc2)cc1 (stereo unspecified)

>  <Study System>
M14

>  <Assigned Category>
FALSE

$$$$
>  <Compound>
Cc1ccc(S(=O)(=O)N2CCc3c([nH]c4ccccc34)C2c2ccc(C=O)cc2)cc1 (stereo unspecified)

>  <Study System>
M14

>  <Assigned Category>
FALSE

$$$$
>  <Compound>
c1ccc2[nH]c(-c3ccc(C4NCCc5c4[nH]c4ccccc54)cc3)nc2c1 (stereo unspecified)

>  <Study System>
M14

>  <Assigned Category>
TRUE

$$$$

With those in mind, consider the next compound.
(Q) Given the entry Cc1n[nH]c2c1C(c1ccc(C3NCCc4c3[nH]c3ccccc43)cc1)C(C#N)=C(N)O2 (stereo unspecified) , answer whether its growth at 10 µM meets or surpasses 90%.
(A) FALSE

---

Quick reference: growth at 10 µM of the listed items.
Tested on: SN12C
Protocol Summary: Growth inhibition of human SN12C cells assessed as cell growth at 10^-5 M incubated for 48 hrs by sulforhodamine B assay relative to control
Format: functional
Setup Conditions: read-out: Activity
Quick note: give the figure in %, leave out the unit.

>  <Compound>
Cc1ccc(S(=O)(=O)N2CCc3c([nH]c4ccccc34)C2c2ccc(C=O)cc2)cc1 (configuration not stated)

>  <Units>
%

>  <growth at 10 µM>
87.7

$$$$
>  <Compound>
c1ccc2[nH]c(-c3ccc(C4NCCc5c4[nH]c4ccccc54)cc3)nc2c1 (configuration not stated)

>  <Units>
%

>  <growth at 10 µM>
93.8

$$$$
>  <Compound>
c1ccc2c(c1)[nH]c1c(-c3ccc(-c4nccc5c4[nH]c4ccccc45)cc3)nccc12

>  <Units>
%

>  <growth at 10 µM>
94.5

$$$$

# growth at 10 µM of Cc1n[nH]c2c1C(c1ccc(C3NCCc4c3[nH]c3ccccc43)cc1)C(C#N)=C(N)O2 (configuration not stated) = 87

In plain terms, `c1ccc2[nH]c(-c3ccc(-c4nccc5c4[nH]c4ccccc45)cc3)nc2c1` has a documented growth at 10 µM of 60.9

response.value for Cc1ccc(S(=O)(=O)N2CCc3c([nH]c4ccccc34)C2c2ccc(-c3nc4ccccc4[nH]3)cc2)cc1 (configuration not stated) (field: growth at 10 µM) = 87.7

Recorded result, O=Cc1ccc(C2NCCc3c2[nH]c2ccccc32)cc1 (configuration not stated) , growth at 10 µM: 89

---

System: RPMI-8226
Protocol Summary: Growth inhibition of human RPMI8226 cells assessed as cell growth at 10^-5 M incubated for 48 hrs by sulforhodamine B assay relative to control
Assay type: functional
Setup Conditions: RPMI-8226, 48 h, read-out: Activity
Recorded growth at 10 µM values for a group of compounds are listed next.
Answer in %, number only, no unit symbol.

Consider the reported growth at 10 µM for these compounds:
>  <Compound>
O=Cc1ccc(C2NCCc3c2[nH]c2ccccc32)cc1 (stereo unspecified)

>  <Experimental Value>
101

$$$$
>  <Compound>
Cc1ccc(S(=O)(=O)N2CCc3c([nH]c4ccccc34)C2c2ccc(C=O)cc2)cc1 (stereo unspecified)

>  <Experimental Value>
99.1

$$$$

Value of growth at 10 µM reported for the compound Cc1ccc(S(=O)(=O)N2CCc3c([nH]c4ccccc34)C2c2ccc(-c3nc4ccccc4[nH]3)cc2)cc1 (stereo unspecified) is 99.1

# compound Cc1n[nH]c2c1C(c1ccc(C3NCCc4c3[nH]c3ccccc43)cc1)C(C#N)=C(N)O2 (stereo unspecified) ; its growth at 10 µM = 72.1

# growth at 10 µM (compound: c1ccc2[nH]c(-c3ccc(C4NCCc5c4[nH]c4ccccc54)cc3)nc2c1 (stereo unspecified) ) is 97.3

# growth at 10 µM (compound: `c1ccc2c(c1)[nH]c1c(-c3ccc(-c4nccc5c4[nH]c4ccccc45)cc3)nccc12` ) is 97.4

---

System: EKVX
Protocol Summary: Growth inhibition of human EKVX cells assessed as cell growth at 10^-5 M incubated for 48 hrs by sulforhodamine B assay relative to control
Assay type: functional
Setup Conditions: read-out: Activity
Reported Endpoint: growth at 10 µM (%)
Your answer is read as %, so omit the unit and give the number.

What the record says about Cc1ccc(S(=O)(=O)N2CCc3c([nH]c4ccccc34)C2c2ccc(-c3nc4ccccc4[nH]3)cc2)cc1 (configuration not stated) : growth at 10 µM is 87.4

---

System: SK-MEL-28
Protocol Summary: Growth inhibition of human SK-MEL-28 cells assessed as cell growth at 10^-5 M incubated for 48 hrs by sulforhodamine B assay relative to control
Format: functional
Setup Conditions: SK-MEL-28, 48 h, read-out: Activity
Reported Endpoint: growth at 10 µM (%)
Write down the numeric answer in % and omit the unit.

Answered examples (2):
>  <Molecule>
Cc1ccc(S(=O)(=O)N2CCc3c([nH]c4ccccc34)C2c2ccc(-c3nc4ccccc4[nH]3)cc2)cc1 (stereo unspecified)

>  <Study System>
SK-MEL-28

>  <growth at 10 µM [%]>
86

$$$$
>  <Molecule>
O=Cc1ccc(C2NCCc3c2[nH]c2ccccc32)cc1 (stereo unspecified)

>  <Study System>
SK-MEL-28

>  <growth at 10 µM [%]>
109

$$$$

`c1ccc2c(c1)[nH]c1c(-c3ccc(-c4nccc5c4[nH]c4ccccc45)cc3)nccc12` has a reported growth at 10 µM of 110

Lab book: growth at 10 µM of Cc1ccc(S(=O)(=O)N2CCc3c([nH]c4ccccc34)C2c2ccc(C=O)cc2)cc1 (stereo unspecified) noted as 86

Entry under test: c1ccc2[nH]c(-c3ccc(C4NCCc5c4[nH]c4ccccc54)cc3)nc2c1 (stereo unspecified) . Its growth at 10 µM was 102

get_value(item= Cc1n[nH]c2c1C(c1ccc(C3NCCc4c3[nH]c3ccccc43)cc1)C(C#N)=C(N)O2 (stereo unspecified) , readout=growth at 10 µM) returns 97.1

---

Test system: LOX IMVI
Protocol Summary: Growth inhibition of human LOXIMVI cells assessed as cell growth at 10^-5 M incubated for 48 hrs by sulforhodamine B assay relative to control
Type: functional
Setup Conditions: read-out: Activity
Below, each entry is listed alongside its reported growth at 10 µM.
API: value field is a number in %; no unit string.

For orientation, consider the following solved cases.
>  <Molecule>
O=Cc1ccc(C2NCCc3c2[nH]c2ccccc32)cc1 (stereo unspecified)

>  <growth at 10 µM / %>
88.6

$$$$
>  <Molecule>
c1ccc2c(c1)[nH]c1c(-c3ccc(-c4nccc5c4[nH]c4ccccc45)cc3)nccc12

>  <growth at 10 µM / %>
89.4

$$$$
>  <Molecule>
c1ccc2[nH]c(-c3ccc(C4NCCc5c4[nH]c4ccccc54)cc3)nc2c1 (stereo unspecified)

>  <growth at 10 µM / %>
98

$$$$
>  <Molecule>
Cc1n[nH]c2c1C(c1ccc(C3NCCc4c3[nH]c3ccccc43)cc1)C(C#N)=C(N)O2 (stereo unspecified)

>  <growth at 10 µM / %>
80.6

$$$$
>  <Molecule>
Cc1ccc(S(=O)(=O)N2CCc3c([nH]c4ccccc34)C2c2ccc(-c3nc4ccccc4[nH]3)cc2)cc1 (stereo unspecified)

>  <growth at 10 µM / %>
85.5

$$$$

Query molecule follows.
GET /value?item= Cc1ccc(S(=O)(=O)N2CCc3c([nH]c4ccccc34)C2c2ccc(C=O)cc2)cc1 (stereo unspecified) &field=growth at 10 µM returns 85.5

---

Test system: SR
Protocol Summary: Growth inhibition of human SR cells assessed as cell growth at 10^-5 M incubated for 48 hrs by sulforhodamine B assay relative to control
Format: functional
Setup Conditions: read-out: Activity
Reported Endpoint: growth at 10 µM (%)
Expressed in %, but write only the number.

Use the examples below as a reference point.
>  <Compound>
O=Cc1ccc(C2NCCc3c2[nH]c2ccccc32)cc1 (stereo unspecified)

>  <Experimental Value>
114

$$$$
>  <Compound>
Cc1ccc(S(=O)(=O)N2CCc3c([nH]c4ccccc34)C2c2ccc(C=O)cc2)cc1 (stereo unspecified)

>  <Experimental Value>
97.2

$$$$
>  <Compound>
c1ccc2c(c1)[nH]c1c(-c3ccc(-c4nccc5c4[nH]c4ccccc45)cc3)nccc12

>  <Experimental Value>
86

$$$$

Value (growth at 10 µM, SR) for record Cc1n[nH]c2c1C(c1ccc(C3NCCc4c3[nH]c3ccccc43)cc1)C(C#N)=C(N)O2 (stereo unspecified) = 113

Record for c1ccc2[nH]c(-c3ccc(C4NCCc5c4[nH]c4ccccc54)cc3)nc2c1 (stereo unspecified) under target or system SR: growth at 10 µM reported as 119

growth at 10 µM of Cc1ccc(S(=O)(=O)N2CCc3c([nH]c4ccccc34)C2c2ccc(-c3nc4ccccc4[nH]3)cc2)cc1 (stereo unspecified) , assay on SR, is 97.2
